meta.source: patent US6638936B1

Parameter Ki, tested on UniProt P28566, listed per item.
Sequence (P28566 whole entry): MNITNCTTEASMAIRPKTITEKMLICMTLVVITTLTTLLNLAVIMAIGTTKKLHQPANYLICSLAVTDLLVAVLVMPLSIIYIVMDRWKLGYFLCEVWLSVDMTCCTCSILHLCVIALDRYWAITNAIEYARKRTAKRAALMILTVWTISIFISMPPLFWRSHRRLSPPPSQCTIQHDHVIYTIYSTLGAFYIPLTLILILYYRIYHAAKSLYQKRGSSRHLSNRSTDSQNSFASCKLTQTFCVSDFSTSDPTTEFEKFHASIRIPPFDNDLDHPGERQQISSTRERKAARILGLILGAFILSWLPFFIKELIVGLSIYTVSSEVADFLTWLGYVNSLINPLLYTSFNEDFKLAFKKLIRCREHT
Express the result in nM but write the number alone.

>>> meas_value("C[C@H]1CN(c2ccc(C(F)(F)F)c3ccoc23)CCN1.O=C(O)/C=C/C(=O)O [Example 1, fumarate]")
633

Next item in the queue.
The recorded Ki for CC[C@H]1CN(c2ccc(C(F)(F)F)c3ccoc23)CCN1.O=C(O)/C=C/C(=O)O [Example 2, fumarate] is 1140

* * *

Molecular target: human 5-HT2C receptor (Homo sapiens, UniProt P28335)
Construct: expressed in transfected cells
Sequence (P28335 33-458): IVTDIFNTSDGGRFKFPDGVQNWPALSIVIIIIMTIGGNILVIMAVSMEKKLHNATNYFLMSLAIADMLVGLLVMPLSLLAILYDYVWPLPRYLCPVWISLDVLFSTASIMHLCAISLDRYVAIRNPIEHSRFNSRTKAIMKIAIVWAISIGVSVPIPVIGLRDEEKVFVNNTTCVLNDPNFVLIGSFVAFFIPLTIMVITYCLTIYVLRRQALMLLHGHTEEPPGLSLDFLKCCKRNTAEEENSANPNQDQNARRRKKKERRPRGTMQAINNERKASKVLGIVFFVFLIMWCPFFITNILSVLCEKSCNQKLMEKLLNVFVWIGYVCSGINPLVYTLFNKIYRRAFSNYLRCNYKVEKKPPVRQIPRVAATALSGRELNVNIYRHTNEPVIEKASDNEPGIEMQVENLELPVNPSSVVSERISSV
Assay: [35S]-GTPγS binding (immunoadsorption scintillation proximity assay)
Type: biochemical
Settings: agonist of 5-HT2c receptor; membranes of AV12 cells with human 5-HT2C; 5-HT defines maximal stimulation; read-out: EC50, [35S]-GTPγS assay
observation_type: EC50
Answer with the figure and its unit, nothing else.

The recorded EC50 for CC[C@H]1CN(c2ccc(C(F)(F)F)c3ccoc23)CCN1.O=C(O)/C=C/C(=O)O [Example 2, fumarate] is 7.8 nM
